These data points were gathered from PubChem BioAssay AID1902.

Target: S. pyogenes SKKanGAS, kanamycin survival, BacTiterGlo, 6 h
Assay: S. pyogenes SKKanGAS kanamycin growth inhibitors – SKKanGAS strain, luminescence, dose confirmation, streptokinase promoter inhibitor project, dose response (AID 1902);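 active = EC50 no more than a set limit of log units above the highest dose; inactive = the rest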;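 note: lower survival reflects blocked streptokinase promoter driving kanamycin resistance gene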
Classes to choose from: true (1) = active, false (0) = inactive

Please share the test call associated with COc1ccc(/C=N/n2c(-c3cccs3)n[nH]c2=S)cc1 .
true (1)

* * *

Target: S. pyogenes SKKanGAS, kanamycin survival, BacTiterGlo, 6 h
Test: S. pyogenes SKKanGAS kanamycin growth inhibitors – SKKanGAS strain, luminescence, dose confirmation, streptokinase promoter inhibitor project, dose response (AID 1902);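 active means EC50 no more than a set limit of log units above the highest dose; inactive means the rest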;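 note: lower survival reflects blocked streptokinase promoter driving kanamycin resistance gene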
Outcome field: choose from Y (active), N (inactive)

I would be grateful if you could indicate the recorded call for O=C(Nc1ccc2c(c1)CCC2)c1cc(S(=O)(=O)Nc2ccc(F)cc2)c(Cl)cc1Cl .
Y

GET /call?item= S=C(NCCSCc1ccc(Cl)cc1Cl)Nc1ccccc1 returns the recorded outcome of this test.
Y

In this assay, the call recorded for O=C(Nc1nc(-c2ccccn2)cs1)c1cccc(-n2cnnn2)c1 was what?
Y

* * *

Molecular target: S. pyogenes SKKanGAS, kanamycin survival, BacTiterGlo, 6 h
Assay: S. pyogenes SKKanGAS kanamycin growth inhibitors – SKKanGAS strain, luminescence, dose confirmation, streptokinase promoter inhibitor project, dose response (AID 1902);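 note: lower survival reflects blocked streptokinase promoter driving kanamycin resistance gene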
Calls of active or inactive are those of the source.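 How the source made its calls: active means EC50 no more than a set limit of log units above the highest dose; inactive means the rest.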
The reply should be one of these categories: 1.0 for active, 0.0 for inactive

Recorded call for O=C(CN(c1ccc(Cl)c(C(F)(F)F)c1)S(=O)(=O)c1ccccc1)N/N=C/c1cccc2c1OCCO2 ?
1.0

Could you check what this test reported for COc1ccc(OC)c(N=Cc2c(O)n(Cc3ccccc3)c(=S)[nH]c2=O)c1 ?
0.0

Can you look up the reported call for COC(=O)c1ccc(NC(=O)c2nc(S(=O)(=O)Cc3cccc(C)c3)ncc2Cl)cc1 for me?
1.0

Call for entry CCOC(=O)N1CCN(C(=O)c2ccc3c(c2)N(C)C(=O)/C(=C\c2ccc(OCC)c(OC)c2)S3)CC1 :
1.0

What was the test verdict on CC1(C)CC(c2nc(-c3ccc(Cl)cc3)cs2)CCS1 (configuration not stated) ?
1.0

Further cases:
Fill in: this test's call for Nc1[nH]n2c(=O)cc(-c3ccccc3)nc2c1N=Nc1ccccc1 is ___
1.0

Please share the test call associated with Fc1cccc2sc(Nc3nnc(-c4ccccc4)o3)nc12 .
1.0

* * *

Target: S. pyogenes SKKanGAS, kanamycin survival, BacTiterGlo, 6 h
Assay: S. pyogenes SKKanGAS kanamycin growth inhibitors – SKKanGAS strain, luminescence, dose confirmation, streptokinase promoter inhibitor project, dose response (AID 1902);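 active = EC50 no more than a set limit of log units above the highest dose; inactive = the rest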;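 note: lower survival reflects blocked streptokinase promoter driving kanamycin resistance gene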
The reply should be one of these categories: yes (1) = active, no (0) = inactive

How did this test come out for CCOC(=O)C1=NN(C(=O)c2ccc(C)cc2)C(O)(c2ccc(Cl)cc2)C1 (stereo not given) ?
yes (1)

Others:
Given CCCCCCCCCCCCC/C=C/[C@@H](O)[C@@H](N)CO , state the outcome it received in this test.
yes (1)

Dear colleague, could you share the recorded outcome for FC(F)(F)c1cccc(-c2cc3ccccc3nc2N2CCCC2)c1 when you have a moment?
yes (1)

# lookup: test call for O=C(NNC(=O)c1cc(-c2ccc(Cl)cc2)nc2ccccc12)c1csc(N2CCOCC2)n1
yes (1)

Hi team, can someone confirm the assay call for S=C(NCCC(c1ccccc1)c1ccccc1)Nc1cccc(Cl)c1 ?
yes (1)

Could you check what this test reported for Oc1ccccc1C1CCCCC1c1ccccc1 (stereo not given) ?
yes (1)
